For each entry below, report its inhibition value.
SYSTEM_NAME: Neuropeptide Y receptor type 5 (Homo sapiens) (UniProt Q15761)
Sequence (whole entry): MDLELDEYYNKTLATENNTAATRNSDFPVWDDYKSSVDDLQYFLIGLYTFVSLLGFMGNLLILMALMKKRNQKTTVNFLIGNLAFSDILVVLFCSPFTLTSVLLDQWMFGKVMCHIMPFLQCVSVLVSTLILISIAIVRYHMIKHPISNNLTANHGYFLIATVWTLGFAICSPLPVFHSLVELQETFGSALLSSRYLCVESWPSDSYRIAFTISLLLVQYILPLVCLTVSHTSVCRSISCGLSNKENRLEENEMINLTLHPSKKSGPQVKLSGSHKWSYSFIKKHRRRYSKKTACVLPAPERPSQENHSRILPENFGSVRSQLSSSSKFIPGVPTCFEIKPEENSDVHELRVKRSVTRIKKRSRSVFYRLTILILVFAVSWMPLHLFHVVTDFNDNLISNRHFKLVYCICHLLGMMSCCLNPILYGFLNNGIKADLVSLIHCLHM
RUN_DESCRIPTION: Tested for the inhibition of [125I]PYY binding to HEK 293 cells stably expressed with human neuropeptide NPY Y5 receptor at a concentration of 10e-8 M
Format: cell-based
SETUP_CONDITIONS: HEK293
Please answer in the form of a number followed by its unit of measurement.

The following compounds have reported results that may help.
COc1ccc(NC(=O)C2CCN(C(=O)Cn3c(=O)sc4ccc(Cl)cc43)CC2)cn1: 70.3%
COc1ccc(CNC(=O)C2CCN(C(=O)Cn3c(=O)sc4ccc(Cl)cc43)CC2)cc1: 61.6%
O=C(Nc1ccc(F)c(C(F)(F)F)c1)C1CCN(C(=O)Cn2c(=O)sc3ccc(Cl)cc32)CC1: 93.2%
O=C(Nc1ccc(Oc2ccccc2)cc1)C1CCN(C(=O)Cn2c(=O)sc3ccc(Cl)cc32)CC1: 94.5%
O=C(Nc1ccc(CCO)cc1)C1CCN(C(=O)Cn2c(=O)sc3ccc(Cl)cc32)CC1: 74.6%

Now examine the next entry.
Lookup: What value of inhibition on Neuropeptide Y receptor type 5 (Homo sapiens) (UniProt Q15761) does O=C(c1ccccc1)c1cccc(NC(=O)C2CCN(C(=O)Cn3c(=O)sc4ccc(Cl)cc43)CC2)c1 have?
Found: 80.5%
